Would you kindly list pKd for each of these binders?
# study.system: RSKL-pY423
# assay.text: fluorescence polarization
# log scale: pKd equals minus log10 of the concentration in mol/L

Record T8V S10A K15I (designed binder) MKIEEHHHHHHSSGRENLYFQGGAAQPAAPVDSIQAEEWYFGKLGRKDAERQLLSFGNPRGTFLIRESETVKGAYALSIRDWDDMKGDHVKHYIIRKLDNGGYYITTRAQFETLQQLVQHYSERAAGLSSRLVVPSHKGAAA , field pKd: 6.06

Record K15L (designed binder) MKIEEHHHHHHSSGRENLYFQGGAAQPAAPVDSIQAEEWYFGKLGRKDAERQLLSFGNPRGTFLIRESETTKGAYSLSIRDWDDMKGDHVKHYLIRKLDNGGYYITTRAQFETLQQLVQHYSERAAGLSSRLVVPSHKGAAA , field pKd: 5.48

Record S10V (designed binder) MKIEEHHHHHHSSGRENLYFQGGAAQPAAPVDSIQAEEWYFGKLGRKDAERQLLSFGNPRGTFLIRESETTKGAYVLSIRDWDDMKGDHVKHYKIRKLDNGGYYITTRAQFETLQQLVQHYSERAAGLSSRLVVPSHKGAAA , field pKd: 5.19

Record K2E T8V S10A K15I (designed binder) MKIEEHHHHHHSSGRENLYFQGGAAQPAAPVDSIQAEEWYFGKLGREDAERQLLSFGNPRGTFLIRESETVKGAYALSIRDWDDMKGDHVKHYIIRKLDNGGYYITTRAQFETLQQLVQHYSERAAGLSSRLVVPSHKGAAA , field pKd: 5.60
